tested-on: Prolactin-releasing peptide receptor (Homo sapiens, UniProt P49683)
experiment-description: Antagonist activity against human GPR10 receptor expressed in HEK293 cells assessed as inhibition of PrRP-induced intracellular calcium mobilization pre-incubated for 15 mins before PrRP addition by Fluo-8 dye based fluorescence imaging plate reader method
Entries annotated with measured pIC50
Remember the convention: pIC50 equals -log10 of concentration in molar.

| smiles-repr | pIC50 |
| --- | --- |
| C[C@H](Nc1nc2c(c(=O)n1N1CCCC1)CN(C(=O)c1ccc(C#N)cc1F)CC2)c1ccc(C(F)(F)F)cc1 | 6.53 |
| COn1c(N[C@@H](C)c2ccc(C(F)(F)F)cc2)nc2c(c1=O)CN(C(=O)CSc1ccc(Cl)cc1)CC2 | 5.94 |
| CCOn1c(N[C@@H](C)c2ccc(C(F)(F)F)cc2)nc2c(c1=O)CN(C(=O)c1ccc(Cl)cc1)CC2 | 5.43 |
| C[C@H](Nc1nc2c(c(=O)n1N1CCCC1)CN(C(=O)c1ccc(C#N)cc1)CC2)c1ccc(C(F)(F)F)cc1 | 6.19 |
| COn1c(N[C@@H](C)c2ccc(C(F)(F)F)cc2)nc2c(c1=O)CN(C(=O)c1ccc(C)c(C)c1)CC2 | 5.99 |

Input line: Entry under review: CCOn1c(N[C@@H](C)c2ccc(C(F)(F)F)cc2)nc2c(c1=O)CN(C(=O)c1ccc(C#N)cc1F)CC2 . Reported pIC50?
Output line: 6.64

Input line: I have this compound here, COn1c(N[C@@H](C)c2ccc(C(F)(F)F)cc2)nc2c(c1=O)CN(C(=O)c1ccc(Cl)s1)CC2 , and I need its recorded pIC50.
Output line: 5.06

Input line: What value of pIC50 has been reported for the following compound? CCOn1c(N[C@@H](C)c2ccc(C(F)(F)F)cc2)nc2c(c1=O)CN(C(=O)c1ccc(C#N)cc1)CC2
Output line: 6.81

* * *

Items are presented alongside their recorded pIC50.
tested-on: Prolactin-releasing peptide receptor (Homo sapiens, UniProt P49683)
Sequence (P49683 whole entry): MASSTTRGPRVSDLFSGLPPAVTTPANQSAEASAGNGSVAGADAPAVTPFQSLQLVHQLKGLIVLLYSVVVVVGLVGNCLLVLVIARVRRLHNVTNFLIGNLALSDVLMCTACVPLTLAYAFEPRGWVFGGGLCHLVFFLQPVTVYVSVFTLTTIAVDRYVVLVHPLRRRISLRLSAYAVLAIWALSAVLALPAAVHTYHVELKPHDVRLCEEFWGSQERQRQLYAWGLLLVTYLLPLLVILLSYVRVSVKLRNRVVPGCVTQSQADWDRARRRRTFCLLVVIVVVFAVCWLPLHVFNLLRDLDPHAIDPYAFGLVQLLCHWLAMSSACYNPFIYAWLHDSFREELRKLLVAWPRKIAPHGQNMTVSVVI
experiment-description: Antagonist activity against human GPR10 receptor expressed in HEK293 cells assessed as inhibition of PrRP-induced intracellular calcium mobilization pre-incubated for 15 mins before PrRP addition by Fluo-8 dye based fluorescence imaging plate reader method
Interpret pIC50 as the negative base-10 log of the concentration measured in mol/L.

# annotated cases, reported pIC50 shown
| molecule | tested-on | parameter | endpoint-result |
| --- | --- | --- | --- |
| COc1ccc(C(=O)N2CCc3nc(N[C@@H](C)c4ccc(C(F)(F)F)cc4)n(OC)c(=O)c3C2)c(OC)n1 | Prolactin-releasing peptide receptor (Homo sapiens, UniProt P49683) | pIC50 | 6.64 |
| COn1c(N[C@@H](C)c2ccc(C(F)(F)F)cc2)nc2c(c1=O)CN(C(=O)COc1ccc(Cl)cc1)CC2 | Prolactin-releasing peptide receptor (Homo sapiens, UniProt P49683) | pIC50 | 6.17 |
| CCOn1c(N[C@@H](C)c2ccc(C(F)(F)F)cc2)nc2c(c1=O)CN(C(=O)c1ccc(-c3cnco3)cc1)CC2 | Prolactin-releasing peptide receptor (Homo sapiens, UniProt P49683) | pIC50 | 6.80 |
| COn1c(N[C@@H](C)c2ccc(C(F)(F)F)cc2)nc2c(c1=O)CN(C(=O)/C=C/c1ccc(Cl)cc1)CC2 | Prolactin-releasing peptide receptor (Homo sapiens, UniProt P49683) | pIC50 | 5.24 |
| C[C@H](Nc1nc2c(c(=O)n1N1CCOCC1)CN(C(=O)c1ccc(C#N)cc1F)CC2)c1ccc(C(F)(F)F)cc1 | Prolactin-releasing peptide receptor (Homo sapiens, UniProt P49683) | pIC50 | 6.73 |

Input line: Tell me the measured pIC50 of COn1c(N[C@@H](C)c2ccc(C(F)(F)F)cc2)nc2c(c1=O)CN(C(=O)CCc1ccc(Cl)cc1)CC2 , please.
Output line: 5.41

Input line: Data request, read-out pIC50, for COn1c(N[C@@H](C)c2ccc(C(F)(F)F)cc2)nc2c(c1=O)CN(C(=O)c1ccc(C)s1)CC2
Output line: 5.95

Input line: Entry CCOn1c(N[C@@H](C)c2ccc(C(F)(F)F)cc2)nc2c(c1=O)CN(C(=O)c1cc3cccnc3s1)CC2 has what pIC50?
Output line: 5.77

Input line: For the molecule shown here, COn1c(NC(C)c2ccc(Cl)cc2)nc2c(c1=O)CN(C(=O)COc1ccc(Cl)cc1)CC2 (single isomer, unassigned) , give the reported pIC50.
Output line: 5.93

* * *

Observed Ki values for Prolactin-releasing peptide receptor (Homo sapiens, UniProt P49683) are listed in what follows.
Write it as a number; the unit nM goes unstated.

| smiles-repr | endpoint-result |
| --- | --- |
| COc1ccc(C(=O)N2CCc3nc(N[C@@H](C)c4ccc(C(F)(F)F)cc4)n(OC)c(=O)c3C2)c(OC)n1 | 7 |

Input line: // fetch Prolactin-releasing peptide receptor (Homo sapiens, UniProt P49683) Ki for COn1c(N[C@@H](C)c2ccc(C(F)(F)F)cc2)nc2c(c1=O)CN(C(=O)c1ccc(C)s1)CC2
Output line: 10

Input line: Query Ki on Prolactin-releasing peptide receptor (Homo sapiens, UniProt P49683) for COn1c(N[C@@H](C)c2ccc(C(F)(F)F)cc2)nc2c(c1=O)CN(C(=O)CSc1ccc(Cl)cc1)CC2
Output line: 8

Input line: Prolactin-releasing peptide receptor (Homo sapiens, UniProt P49683) / Ki / CCOn1c(N[C@@H](C)c2ccc(C(F)(F)F)cc2)nc2c(c1=O)CN(C(=O)c1ccc(C#N)cc1)CC2 : value?
Output line: 11

Input line: Please tell me: Ki of COn1c(N[C@@H](C)c2ccc(C(F)(F)F)cc2)nc2c(c1=O)CN(C(=O)CCc1ccc(Cl)cc1)CC2 , system Prolactin-releasing peptide receptor (Homo sapiens, UniProt P49683)?
Output line: 134

Input line: Hi! What's the reported Ki for COn1c(N[C@H](c2ccc(Cl)cc2)C(C)C)nc2c(c1=O)CN(C(=O)c1ccc3c(c1)CCC(=O)N3C)CC2 on Prolactin-releasing peptide receptor (Homo sapiens, UniProt P49683)?
Output line: 24

* * *

tested-on: Prolactin-releasing peptide receptor (Homo sapiens, UniProt P49683)
Sequence (P49683 whole entry): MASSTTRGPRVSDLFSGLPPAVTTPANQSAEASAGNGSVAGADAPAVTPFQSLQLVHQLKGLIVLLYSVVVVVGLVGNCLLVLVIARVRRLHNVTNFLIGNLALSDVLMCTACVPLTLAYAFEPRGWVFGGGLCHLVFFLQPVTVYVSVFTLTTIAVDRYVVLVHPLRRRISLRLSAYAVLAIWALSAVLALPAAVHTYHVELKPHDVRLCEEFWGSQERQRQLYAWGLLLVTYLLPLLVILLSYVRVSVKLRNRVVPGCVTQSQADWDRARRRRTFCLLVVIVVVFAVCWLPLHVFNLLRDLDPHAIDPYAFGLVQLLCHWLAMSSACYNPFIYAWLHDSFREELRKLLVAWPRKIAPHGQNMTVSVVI
parameter: Ki
State the result as a value with its unit after it.

Input line: Name the reported Ki value associated with the compound COn1c(N[C@@H](C)c2ccc(C(F)(F)F)cc2)nc2c(c1=O)CN(C(=O)c1ccc(Cl)s1)CC2
Output line: 15 nM

* * *

tested-on: Prolactin-releasing peptide receptor (Homo sapiens, UniProt P49683)
pKi: −log10 of the molar value.
Please use Fulfilled whenever pKi is not below 8, and Not fulfilled whenever it is.

As a guide, the following entries are already answered.
| smiles-repr | category |
| --- | --- |
| COn1c(N[C@H](C)C2CCCCC2)nc2c(c1=O)CN(C(=O)c1ccc(C#N)cc1F)CC2 | Not fulfilled |
| C[C@H](Nc1nc2c(c(=O)n1N1CCOCC1)CN(C(=O)c1ccc(C#N)cc1F)CC2)c1ccc(C(F)(F)F)cc1 | Fulfilled |
| COn1c(N[C@@H](C)c2ccc(C(F)(F)F)cc2)nc2c(c1=O)CN(C(=O)c1ccc(Cl)o1)CC2 | Not fulfilled |
| CCOn1c(N[C@@H](C)c2ccc(C(F)(F)F)cc2)nc2c(c1=O)CN(C(=O)c1ccc(Cl)cc1)CC2 | Not fulfilled |
| COn1c(N[C@@H](C)c2ccc(C(F)(F)F)cc2)nc2c(c1=O)CN(C(=O)c1ccc(C)c(C)c1)CC2 | Fulfilled |

Consider the additional molecule presented here.
Input line: Dear colleague, could you confirm whether CCOn1c(N[C@@H](C)c2ccc(C(F)(F)F)cc2)nc2c(c1=O)CN(C(=O)c1ccc(C#N)cc1F)CC2 has pKi at or above 8?
Output line: Fulfilled
